run description: qHTS to identify inhibitors of the type 1 interferon - major histocompatibility complex class I in skeletal muscle: primary screen against the NCATS Mechanism Interrogation Plate v5.0 (MIPE) Libary (AID 1347411); further: nearly all actives have a fitted effect of over 65% in size
recorded conditions: iHSKM cells + IFN-b, HiBiT-tagged MHC-I luminescence, 24 h; series mostly up to 45.8 µM
Description: Assay Submitter (PI): Travis B. Kinder Ph.D. & James Inglese Ph.D. Assay Development and Screening Technology Laboratory (ADST) National Center for Advancing Translational Sciences (NCATS), Rockville, MD National Institute of Health (NIH), Bethesda, Maryland […] 7; Detector; 5 sec; Measure luminescence with ViewLux 1430 Ultra HTS (Perkin Elmer). […]
Results filed as inconclusive are left out. The source made the active and inactive calls. The call rests on the fitted dose curve; in most records, active means well fitted inhibition curve with a large enough effect; inconclusive means small, poorly fitted or top-dose-only effect; inactive means no such curve, though single readings can be large or run the other way. Where a SMILES comes first, the peptide text is derived from it.
Respond only with the outcome that fits, drawn from active, inactive

Called result for N[C@@H](CCC(=O)O)C(=O)N[C@@H](Cc1c[nH]c2ccccc12)C(=O)O (H-Glu-Trp-OH)
inactive

Input CC(C)=CCC[C@](C)(O[C@@H]1O[C@H](CO[C@@H]2O[C@H](CO)[C@@H](O)[C@H](O)[C@H]2O)[C@@H](O)[C@H](O)[C@H]1O)[C@H]1CC[C@]2(C)[C@@H]1[C@H](O)C[C@@H]1[C@@]3(C)CC[C@H](O[C@@H]4O[C@H](CO)[C@@H](O)[C@H](O)[C@H]4O[C@@H]4O[C@H](CO)[C@@H](O)[C@H](O)[C@H]4O)C(C)(C)[C@@H]3CC[C@]12C
inactive

Can you handle C[C@@H]1CC(=O)Nc2cccc(-c3ccc4c(c3)c(-c3cnn(C)c3)nn4C)c2N1 next?
inactive

Moving on to O=C(NCc1ccccc1)[C@H](Cc1ccccc1)NC(=O)[C@H]1O[C@@H]1C(=O)NCCc1ccc(O)cc1
inactive

Also need O=C([O-])C[O-].[Pt+2] , thanks.
inactive

Try the molecule COc1cc(C)[nH]c(=O)c1CN1CCc2c(Cl)cc([C@H](OC)C3COC3)c(Cl)c2C1=O
inactive

Same question, CC1(C)OC2=C(C(=O)c3ccccc3C2=O)[C@H](NCc2ccccc2)[C@@H]1O this time
active

Entry C=C1C(=O)O[C@H]2C[C@H](C)C(/C=C/C(C)=O)=CC[C@H]12 please
active

Now try CC(C)C[C@H](NC(=O)[C@H](Cc1ccccc1)NC(=O)OCc1ccccc1)C(=O)C=O .
inactive

Please give the result for COc1cc(-c2cn(C)c(=O)c3cnccc23)c(OC)cc1CN(C)C too.
inactive

And CONC(=O)Nc1ccc(-c2sc3c(c2CN(C)Cc2ccccc2)c(=O)n(-c2ccccc2)c(=O)n3Cc2c(F)cccc2F)cc1 ?
inactive

Here is the next molecule: CS(=O)(=O)c1ccc(-c2cnc(NCc3ccco3)n3cnnc23)cc1
inactive

What do you get for O=C(/C=C/c1ccc2ccc(C(F)(F)F)cc2n1)c1ccncc1 ?
active

// repeat for COC1=C(OC)C(=O)C(C/C=C(\C)CC/C=C(\C)CC/C=C(\C)CC/C=C(/C)CC/C=C(\C)CC/C=C(\C)CC/C=C(\C)CC/C=C(\C)CC/C=C(\C)CCC=C(C)C)=C(C)C1=O and report
inactive

Now give it for C[C@@H](Oc1ccc2[nH]nc(/C=C/c3cnn(CCO)c3)c2c1)c1c(Cl)cncc1Cl too.
active
